Let's look at some compounds and their measured differential expression of proteins in the control hippocampus.
Test system: hippocampal proteins
Method Notes: Hippocampal LC-MS/MS proteomics, chronic cocaine with single psychedelic administration
Assay type: in vivo, Male Wister rats
Experimental Parameters: single i.p. dose (5-MeO-DMT 5 mg/kg, LSD 0.14 mg/kg, psilocybin 1 mg/kg, DOI 1 mg/kg) vs saline-saline; p<0.05, FC ±20%
Form entry: value (proteins) — number only.

- Compound: "CN(C)CCc1c[nH]c2cccc(OP(=O)(O)O)c12"
  Units Symbol: "proteins"
  Observed: 91
- Compound: "COc1cc(CC(C)N)c(OC)cc1I (stereo not shown)"
  Units Symbol: "proteins"
  Observed: 79
- Compound: "CCN(CC)C(=O)[C@@H]1C=C2c3cccc4[nH]cc(c34)C[C@H]2N(C)C1 [LSD, Lysergic acid diethylamide]"
  Units Symbol: "proteins"
  Observed: 73

Now let's try a different one.
Can you look up differential expression of proteins in the control hippocampus on hippocampal proteins for COc1ccc2[nH]cc(CCN(C)C)c2c1 ?
64

---

Test system: hippocampal proteins
Method Notes: Hippocampal LC-MS/MS proteomics, chronic cocaine with single psychedelic administration
Format: in vivo, Male Wister rats
Experimental Parameters: single treatment (5-MeO-DMT 5, LSD 0.14, psilocybin 1, DOI 1 mg/kg i.p.)
Let's look at some compounds and their measured reversal of chronic cocaine mediated proteomic changes in the hippocampus.
Form entry: value (%) — number only.

- Compound: "COc1cc(CC(C)N)c(OC)cc1I (stereo not shown)"
  Observed: 70
- Compound: "CN(C)CCc1c[nH]c2cccc(OP(=O)(O)O)c12"
  Observed: 74
- Compound: "CCN(CC)C(=O)[C@@H]1C=C2c3cccc4[nH]cc(c34)C[C@H]2N(C)C1 [LSD, Lysergic acid diethylamide]"
  Observed: 59

Look at this compound and give its reported reversal of chronic cocaine mediated proteomic changes in the hippocampus. COc1ccc2[nH]cc(CCN(C)C)c2c1
77

---

Test system: hippocampal proteins
Method Notes: Hippocampal LC-MS/MS proteomics, chronic cocaine with single psychedelic administration
Format: in vivo, Male Wister rats
Experimental Parameters: single i.p. dose after 14 days cocaine 20 mg/kg (5-MeO-DMT 5, LSD 0.14, psilocybin 1, DOI 1 mg/kg) vs cocaine-saline
Experimental Endpoint: differential expression of proteins in the chronic cocaine hippocampus

Look at this molecule and give its reported differential expression of proteins in the chronic cocaine hippocampus. CN(C)CCc1c[nH]c2cccc(OP(=O)(O)O)c12
45 proteins

And the next one, CCN(CC)C(=O)[C@@H]1C=C2c3cccc4[nH]cc(c34)C[C@H]2N(C)C1 [LSD, Lysergic acid diethylamide] ?
57 proteins

And the next one, COc1ccc2[nH]cc(CCN(C)C)c2c1 ?
74 proteins

And the next one, COc1cc(CC(C)N)c(OC)cc1I (stereo not shown) ?
55 proteins
